tested on: CEM cells HIV-1 protection, formazan growth assay; experiment: NCI AIDS Antiviral Assay; details: measured here: growth of uninfected CEM cells
pIC50: −log10 of the molar value.
Use 5 as the dividing line for pIC50, with the line itself on the YES side and lower values as NO.

molecule	study-system	label-value
CN(C)Cc1cc(N=Nc2c(Cl)cccc2Cl)ccc1O	CEM cells HIV-1 protection, formazan growth assay	NO
CC1=C(C(=O)NNC(=O)CC#N)CC(C(=O)NNC(=O)CC#N)=C(C)N1	CEM cells HIV-1 protection, formazan growth assay	NO
CC1(C)OCC2OC3([C@@H]4OC(C)(C)O[C@H]4CO)OC(C)(C)OC3C2O1 (stereo not given in full)	CEM cells HIV-1 protection, formazan growth assay	NO
CCSC(CCC(NC(C)=O)C(=O)O)SCC (stereo not given)	CEM cells HIV-1 protection, formazan growth assay	NO
COC(=O)C(Cc1c[nH]c2ccccc12)NP(=O)(O)OCC1OC(n2ccc(N)nc2=O)C(O)C1O (stereo not given)	CEM cells HIV-1 protection, formazan growth assay	YES
O=C1/C(=C/c2cc3c(=O)c4ccccc4sc3s2)NC(=S)N1c1ccccc1	CEM cells HIV-1 protection, formazan growth assay	NO
CCNC(=S)N/N=C/c1cc(OC)ccc1O	CEM cells HIV-1 protection, formazan growth assay	NO
CC1=Nn2c(nnc2-c2ccc(Cl)cc2)NC(C)(C)C1	CEM cells HIV-1 protection, formazan growth assay	NO
CCOc1ccc(N=Nc2c(-c3ccccc3)nn(C(=O)CC(=O)Nc3cccc(C)c3)c2-c2ccccc2)cc1	CEM cells HIV-1 protection, formazan growth assay	NO
O=C(O)/C=C\C(=O)Nc1ccc(SSc2ccc(NC(=O)/C=C\C(=O)O)cc2)cc1	CEM cells HIV-1 protection, formazan growth assay	NO
O=c1[nH][nH]c(=O)c2nc(Nc3ccco3)ncc12	CEM cells HIV-1 protection, formazan growth assay	NO
Cn1[nH]c(=O)ccc1=O	CEM cells HIV-1 protection, formazan growth assay	NO
CNC(=O)CCCN(C)C(=O)CCCCC(=O)N(C)C	CEM cells HIV-1 protection, formazan growth assay	NO
Cc1c([N+](=O)[O-])ccc2c(NCCCN(C)C)ccnc12	CEM cells HIV-1 protection, formazan growth assay	NO
CCOC(=O)/C=C/[C@@H](CC)O[Si](C(C)C)(C(C)C)C(C)C	CEM cells HIV-1 protection, formazan growth assay	NO
CC[C@@]1(OP(=O)(O)O)C(=O)OCc2c1cc1n(c2=O)Cc2cc3ccccc3nc2-1	CEM cells HIV-1 protection, formazan growth assay	YES
CC(=O)OCC(=O)OC[C@H](OCc1ccccc1)[C@@H]1[C@H](OC(C)=O)C(=O)N1Cc1ccccc1	CEM cells HIV-1 protection, formazan growth assay	NO
CCC1C(=O)OCc2c1cc1n(c2=O)C(CC)c2c-1nc1ccccc1c2Cl (stereo not given)	CEM cells HIV-1 protection, formazan growth assay	YES
O=C(O)Cn1[se]c2ccccc2c1=O	CEM cells HIV-1 protection, formazan growth assay	NO
O=C(Nc1noc(-c2ccccc2)n1)c1ccccc1CNc1noc(-c2ccccc2)n1	CEM cells HIV-1 protection, formazan growth assay	NO
CN1C(=O)OC(c2ccc(Cl)cc2)C1=O (stereo not given)	CEM cells HIV-1 protection, formazan growth assay	NO
CCc1c(-c2ccccc2)[nH]c(=S)c(C#N)c1C	CEM cells HIV-1 protection, formazan growth assay	NO
O=[N+]([O-])c1cccc2nc3ccccc3c(NCCC[N+]3([O-])CCCCC3)c12	CEM cells HIV-1 protection, formazan growth assay	YES
O=C1CCC(c2ccccc2)=NN1c1nsc2ccccc12	CEM cells HIV-1 protection, formazan growth assay	NO
COC1=CC(=O)C(C#CCOCc2ccccc2)=CC1=O	CEM cells HIV-1 protection, formazan growth assay	NO
C=Cc1ccc(C)[n+](C[Si](C)(C)O[Si](C)(C)C[n+]2cc(C=C)ccc2C)c1	CEM cells HIV-1 protection, formazan growth assay	NO
C#CCN(C(=O)C(F)(F)F)c1ccc(C(=O)c2ccc(N(CC#C)C(=O)C(F)(F)F)cc2)cc1	CEM cells HIV-1 protection, formazan growth assay	NO
O=C1[C@@H]2C(c3ccccc3)=NO[C@@H]2C(=O)N1c1ccc(Cc2ccc(N3C(=O)[C@H]4C(c5ccccc5)=NO[C@H]4C3=O)cc2)cc1	CEM cells HIV-1 protection, formazan growth assay	NO
COc1ccc2c(c1)N=C(N)n1c(nc3ccccc31)S2	CEM cells HIV-1 protection, formazan growth assay	YES
COc1cc2cnc3c4cc(OS(=O)(=O)c5ccccc5)ccc4ccc3c2cc1OC	CEM cells HIV-1 protection, formazan growth assay	NO
C=C(C(=O)C(=O)Oc1ccc(Cl)cc1)C(=O)c1ccc(C)cc1	CEM cells HIV-1 protection, formazan growth assay	NO
C=[N+](CNC(=O)CNC(=O)C(Cc1ccc([N+](=O)[O-])cc1)NC(=O)OC(C)(C)C)C(=O)CNC(=O)C(Cc1ccc([N+](=O)[O-])cc1)NC(=O)OC(C)(C)C (stereo not given)	CEM cells HIV-1 protection, formazan growth assay	NO
NC(=O)C(=CN1C(=O)/C(=C/c2ccccc2O)SC1=S)C(N)=O	CEM cells HIV-1 protection, formazan growth assay	NO
COc1ccc(Cc2c(N)[nH]c(=O)n(C)c2=O)cc1	CEM cells HIV-1 protection, formazan growth assay	NO
CCCC(CC)C(C(=O)OCC)C1=NC(C)(C)CC(C)O1 (stereo not given)	CEM cells HIV-1 protection, formazan growth assay	NO
CCC(=O)N1C(=O)C(C)C23c4cc(OC)c(OC)cc4C(=O)N2CCCN13 (stereo not given)	CEM cells HIV-1 protection, formazan growth assay	NO
CC1OC(OC2C(CO)OC(O[C@H]3CC[C@@]4(C)C(=CC[C@H]5[C@@H]6C[C@@H]7O[C@](O)(CC[C@H](C)COC8OC(CO)C(O)C(O)C8O)[C@@H](C)[C@@H]7[C@@]6(C)CC[C@@H]54)C3)C(OC3OC(C)C(O)C(O)C3O)C2O)C(O)C(O)C1O (stereo not given in full)	CEM cells HIV-1 protection, formazan growth assay	YES
